- Experimental target: T1, recombinant human Siglec-8 extracellular domain (ECD) (human, UniProt Q9NYZ4 17-363)
- T1 construct: extracellular domain; also called Siglec-8 ECD; full Siglec-8 ECD
- T1 sequence (Q9NYZ4 17-363): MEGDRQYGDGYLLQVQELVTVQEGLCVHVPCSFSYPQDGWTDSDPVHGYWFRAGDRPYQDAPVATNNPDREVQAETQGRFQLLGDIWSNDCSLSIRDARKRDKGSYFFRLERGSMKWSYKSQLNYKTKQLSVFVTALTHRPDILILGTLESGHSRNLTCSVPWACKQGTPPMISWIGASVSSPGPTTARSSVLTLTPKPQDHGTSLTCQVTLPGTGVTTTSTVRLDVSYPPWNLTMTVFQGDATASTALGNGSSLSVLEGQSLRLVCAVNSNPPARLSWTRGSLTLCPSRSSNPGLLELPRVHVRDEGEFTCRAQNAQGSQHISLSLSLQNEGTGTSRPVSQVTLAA
- Experiment description: ELISA, coated Siglec-8 ECD
Measured pEC50 values are reported for all entries that follow.
For clarity, pEC50 is expressed as the negative log10 of concentration in mol/L.

{"Binder": "RHE Y-VKC (antibody, human IgG1, V domains shown, human IgG1/kappa) VH: EVQLVESGGGLVQPGGSLRLSCAASGFSLTIYGAHWVRQAPGKGLEWVGVIWAGGSTNYNSALMSRFTISKDNSKNTVYLQMNSLRAEDTAVYYCARDGSSPYYYSMEVWGQGTTVTVSS VL: EIILTQSPATLSLSPGERATLSCSATSSVSYMHWFQQKPGQAPRLLIYSTSNLASGIPARFSGSGSGTDFTLTISSLEPEDFAVYYCQQRSSYPFTFGPGTKLDIK", "Recorded result": 9.67}
{"Binder": "RHE S-GKF (antibody, human IgG1, V domains shown, human IgG1/kappa) VH: EVQLVESGGGLVQPGGSLRLSCAASGFSLTIYGAHWVRQAPGKGLEWVGVIWAGGSTNYNSALMSRFTISKDNSKNTVYLQMNSLRAEDTAVYYCARDGSSPYYYGMEYWGQGTTVTVSS VL: EIVLTQSPATLSLSPGERATLSCSATSSVSYMHWFQQKPGQAPRLLIYSTSNLASGIPARFSGSGSGTDYTLTISSLEPEDFAVYYCQQRSSYPFTFGPGTKLDIK", "Recorded result": 8.48}

Now for a further binder.
Q: What value of measured pEC50 is listed for HGKA (antibody, human IgG1, V domains shown, human IgG1/kappa) VH: EVQLVESGGGLVQPGGSLRLSCAASGFSLTIYGAHWVRQAPGKGLEWVSVIWAGGSTNYNSALMSRFSISKDNSKNTVYLQMNSLRAEDTAVYYCARDGSSPYYYSMEYWGQGTTVTVSS VL: EIVLTQSPATLSLSPGERATLSCSATSSVSYMHWFQQKPGQAPRLLIYSTSNLASGIPARFSGSGSGTDFTLTISSLEPEDFAVYYCQQRSSYPFTFGPGTKLDIK ?
Ans: 10.21
